This collection of values is drawn from PubChem BioAssay (NCI).

Tested on: A498 renal
Assay: NCI-60 one-dose screen, 48 h (100 = growth as untreated, 0 = no growth, -100 = all killed)
Conditions: 10 µM unless noted
This is part of a sample that, as a whole, favours compounds with a hit. Of some 83,000 tested, about 20% had one in any assay.
Measured growth accompanies every entry in the list below.
Report as a plain number; the unit % is understood.

Solved entries:
Chem Smiles	Observed Measurement
COc1ccc(-c2cc(-c3nnc(SCC(=O)Nc4ccc(C(C)=O)cc4)o3)c3ccccc3n2)cc1	18.3
C=C(C)[C@@H]1CC[C@]2(C(=O)N=C=S)CC[C@]3(C)[C@H](CC[C@@H]4[C@@]5(C)CCC(=O)C(C)(C)[C@@H]5CC[C@]43C)[C@@H]12	25.3
CC(=O)Nc1ccc2c(c1)Cc1cc(F)ccc1-2	73.2

Quick one: growth for CCCCOc1nc2ccc(C)cc2cc1/C=C/C(=O)/C=C/c1ccc2c(c1)OCO2 ? 106
